TARGET UNDER TEST: Epidermal growth factor receptor (Homo sapiens, UniProt P00533, C797S/L858R/T790M)
Sequence (P00533 25-1210 T790M/C797S/L858R limits assumed): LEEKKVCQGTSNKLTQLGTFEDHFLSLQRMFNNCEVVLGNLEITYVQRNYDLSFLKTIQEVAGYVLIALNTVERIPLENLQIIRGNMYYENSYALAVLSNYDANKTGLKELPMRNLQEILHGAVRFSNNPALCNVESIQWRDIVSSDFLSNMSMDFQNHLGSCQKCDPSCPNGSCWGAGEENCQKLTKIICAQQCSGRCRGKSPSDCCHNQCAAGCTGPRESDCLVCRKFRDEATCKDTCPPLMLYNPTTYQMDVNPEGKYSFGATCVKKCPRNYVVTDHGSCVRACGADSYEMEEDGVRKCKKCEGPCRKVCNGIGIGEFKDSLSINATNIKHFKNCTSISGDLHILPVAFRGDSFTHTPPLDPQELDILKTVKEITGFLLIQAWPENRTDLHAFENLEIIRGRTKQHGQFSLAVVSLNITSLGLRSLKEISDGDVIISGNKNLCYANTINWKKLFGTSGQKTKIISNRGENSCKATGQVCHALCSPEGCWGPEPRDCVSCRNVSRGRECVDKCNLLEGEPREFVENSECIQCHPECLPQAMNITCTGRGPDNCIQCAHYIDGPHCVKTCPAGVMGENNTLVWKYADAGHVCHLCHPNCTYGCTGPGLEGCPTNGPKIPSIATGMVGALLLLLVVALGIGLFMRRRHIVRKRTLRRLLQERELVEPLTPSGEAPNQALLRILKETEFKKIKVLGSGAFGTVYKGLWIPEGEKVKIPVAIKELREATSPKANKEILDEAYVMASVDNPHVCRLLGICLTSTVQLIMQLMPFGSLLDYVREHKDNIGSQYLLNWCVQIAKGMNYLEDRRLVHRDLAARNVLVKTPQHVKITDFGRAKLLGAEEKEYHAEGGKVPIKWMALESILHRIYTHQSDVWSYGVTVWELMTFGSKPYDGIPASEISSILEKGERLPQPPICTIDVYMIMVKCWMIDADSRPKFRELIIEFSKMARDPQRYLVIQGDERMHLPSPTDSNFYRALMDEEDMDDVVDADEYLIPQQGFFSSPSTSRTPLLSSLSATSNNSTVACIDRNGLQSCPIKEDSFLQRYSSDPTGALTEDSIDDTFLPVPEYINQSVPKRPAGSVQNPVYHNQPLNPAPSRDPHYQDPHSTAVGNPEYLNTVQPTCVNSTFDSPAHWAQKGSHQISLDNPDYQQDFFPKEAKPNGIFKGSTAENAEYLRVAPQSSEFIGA
TEST DESCRIPTION: Inhibition of recombinant human C-terminal His-tagged/N-terminal GST-tagged EGFR (668 to 1210 residues) T790M/L858R/C797S mutant using poly (Glu,Tyr) 4:1 as substrate after 1 hr by ELISA
pIC50: −log10 of the molar value.
MEASURED ENDPOINT: pIC50

{"CHEMICAL STRUCTURE": "N#Cc1ccc(O)c(-c2nc(NCc3cnccn3)c3ccccc3n2)c1", "TARGET UNDER TEST": "Epidermal growth factor receptor (Homo sapiens, UniProt P00533, C797S/L858R/T790M)", "MEASURED ENDPOINT": "pIC50", "QUANTITATIVE RESULT": 7.07}

---

System: BaF3
TEST DESCRIPTION: Antiproliferative activity against mouse BAF3 cells harboring EGFR L858R/T790M/C797S mutant after 72 hrs by resazurin dye based assay
Format: functional, cell-based
SETTINGS: BaF3, 72 h
pIC50: −log10 of the molar value.

{"CHEMICAL STRUCTURE": "C=CC(=O)Nc1cc(Nc2nccc(-c3cn(C)c4ccccc34)n2)c(OC)cc1N(C)CCN(C)C", "pIC50": 5.29}
{"CHEMICAL STRUCTURE": "CCC(=O)N[C@H]1CC[C@H](N2C(=O)N(c3ccccc3Cl)Cc3cnc(Nc4ccc(N5CCN(C)CC5)c(C)c4)nc32)CC1", "pIC50": 6.29}
{"CHEMICAL STRUCTURE": "COc1cc(N2CCC(N3CCN(C)CC3)CC2)ccc1Nc1ncc(Cl)c(Nc2ccccc2P(C)(C)=O)n1", "pIC50": 6.38}

Data credit: ChEMBL document CHEMBL4266062
